Target: BRD4 (BD1+BD2) bromodomain (Homo sapiens (Human), UniProt O60885)
Assay: BRD4 binding inhibition (AlphaScreen, GST-BRD4 vs tetraacetylated histone H4 peptide)
Details: GST-BRD4 (BD1+BD2) / biotinylated acetyl-histone H4 (Lys5,8,12,16) peptide; read-out: IC50, BRD4 binding inhibition
ENDPOINT LABEL: IC50

molecule="COc1cc2nc(NCCCCC(=O)NCc3ccccc3)c3nnc(C)n3c2cc1OC [Example 651]" value_measured="≤ 50 nM"
molecule="Cc1nnc2c(NCCCCCC(=O)NCC(C)C)nc3ccccc3n12 [Example 662]" value_measured="≤ 50 nM"
molecule="Cc1noc(C)c1-c1ccc2c(c1)nc(NCCCCNC(=O)CC(C)C)c1nnc(C)n12 [Example 585]" value_measured="≤ 10 nM"
molecule="COC(=O)c1ccc2c(c1)nc(NCCCCNC(=O)OC(C)(C)C)c1nnc(C)n12 [Example 197]" value_measured="≤ 50 nM"
molecule="CC(=O)OCC(=O)NCCCCNc1nc2cc3c(cc2n2c(C)nnc12)OCCO3 [Example 184]" value_measured="≤ 50 nM"
molecule="CCOc1cc2nc(NCCCCNC(=O)CC(C)C)c3nnc(C)n3c2cc1OCC [Example 177]" value_measured="≤ 50 nM"
molecule="COCCOc1ccc2c(c1)nc(NCCCCNC(=O)Cc1ccco1)c1nnc(C)n12 [Example 407]" value_measured="≤ 10 nM"
molecule="COCCOc1cc2nc(NCCCCNC(=O)CC(C)(C)C)c3nnc(C)n3c2cc1OCCOC [Example 167]" value_measured="≤ 50 nM"
molecule="CCCNc1ccc2nc(NCCCCNC(=O)CC(C)C)c3nnc(C)n3c2c1 [Example 552]" value_measured="≤ 50 nM"
molecule="Cc1nnc2c(NCCCCNC(=O)CC(C)C)nc3cc(O)ccc3n12 [Example 340]" value_measured="≤ 50 nM"
molecule="CC(=O)OC(C)(C)C(=O)NCCCCNc1nc2cc(-c3nc4ccccc4n3C)ccc2n2c(C)nnc12 [Example 231]" value_measured="≤ 50 nM"

---

Molecular target: BRD4 (BD1+BD2) bromodomain (Homo sapiens (Human), UniProt O60885)
Experiment: BRD4 binding inhibition (AlphaScreen, GST-BRD4 vs tetraacetylated histone H4 peptide)
Details: GST-BRD4 (BD1+BD2) vs biotinylated acetyl-histone H4 peptide, AlphaScreen; read-out: BRD4 IC50
Note to self: use Y only for IC50 readings below 40 nM; a reading exactly at 40 nM still gets N.

compound="Cc1nnc2c(NCCCCNC(=O)OC(C)(C)C)nc3ccccc3n12 [Example 1]" label_class=N
compound="Cc1nnc2c(NCCCCNC(=O)OC(C)C)nc3cc4c(cc3n12)OCCO4 [Example 188]" label_class=Y
compound="COc1ccc2c(c1)nc(NCCCCNC(=O)[C@@H](N)Cc1ccc(O)cc1)c1nnc(C)n12 [Example 326]" label_class=N
compound="Cc1nnc2c(NCCCCNC(=O)CC(C)C)nc3cc(C(=O)Nc4ccccc4N)ccc3n12 [Example 215]" label_class=Y
compound="Cc1nnc2c(NCCCCNC(=O)OC(C)(C)C)nc3cc(C(=O)Nc4ccccc4)ccc3n12 [Example 212]" label_class=Y
compound="COc1cc2nc(NCCCCNC(=O)OCc3ccccc3)c3nnc(C)n3c2cc1OC [Example 68]" label_class=Y
compound="CSc1ccc2c(c1)nc(NCCCCNC(=O)OC(C)(C)C)c1nnc(C)n12 [Example 354]" label_class=N
compound="COc1cc2nc(NCCCCNC(=O)c3ccc([N+](=O)[O-])cc3)c3nnc(C)n3c2cc1OC [Example 101]" label_class=N
compound="Cc1nnc2c(NCCCCNC(=O)C(C)(C)O)nc3cc(-c4nc5ccccc5n4C)ccc3n12 [Example 232]" label_class=Y

---

Collected IC50 values appear next to each entry.
Target: BRD4 (BD1+BD2) bromodomain (Homo sapiens (Human), UniProt O60885)
Assay: BRD4 binding inhibition (AlphaScreen, GST-BRD4 vs tetraacetylated histone H4 peptide)
Settings: GST-BRD4 (BD1+BD2) vs biotinylated acetyl-histone H4 peptide, AlphaScreen; read-out: BRD4 IC50
ENDPOINT LABEL: IC50

molecule="COc1ccc2c(c1)nc(NCCCCNC(=O)[C@@H](O)C(C)C)c1nnc(C)n12 [Example 299]" value_measured="7 nM"
molecule="Cc1nnc2c(NCCCCNC(=O)OC(C)(C)C)nc3cc(C(=O)O)ccc3n12 [Example 200]" value_measured="71 nM"
molecule="COc1ccc2c(c1)nc(NCCCCNC(=O)C=C(C)C)c1nnc(C)n12 [Example 284]" value_measured="9 nM"
molecule="CCc1nnc2c(NCCCCNC(=O)CC(C)C)nc3cc(OC)ccc3n12 [Example 622]" value_measured="20 nM"
molecule="COc1cc2nc(NCCCCNC(=O)Nc3ccccc3)c3nnc(C)n3c2cc1OC [Example 94]" value_measured="57 nM"
molecule="Cc1cccc(C)c1C(=O)NCCCCNc1nc2ccccc2n2c(C)nnc12 [Example 13]" value_measured="57 nM"
molecule="COc1ccc2c(c1)nc(NCCCCNC(=O)[C@H](Cc1ccc(O)cc1)NC(=O)OC(C)(C)C)c1nnc(C)n12 [Example 325]" value_measured="71 nM"
